- system_name: Amyloid-beta precursor protein (Homo sapiens, UniProt P05067)
- Sequence (P05067 whole entry): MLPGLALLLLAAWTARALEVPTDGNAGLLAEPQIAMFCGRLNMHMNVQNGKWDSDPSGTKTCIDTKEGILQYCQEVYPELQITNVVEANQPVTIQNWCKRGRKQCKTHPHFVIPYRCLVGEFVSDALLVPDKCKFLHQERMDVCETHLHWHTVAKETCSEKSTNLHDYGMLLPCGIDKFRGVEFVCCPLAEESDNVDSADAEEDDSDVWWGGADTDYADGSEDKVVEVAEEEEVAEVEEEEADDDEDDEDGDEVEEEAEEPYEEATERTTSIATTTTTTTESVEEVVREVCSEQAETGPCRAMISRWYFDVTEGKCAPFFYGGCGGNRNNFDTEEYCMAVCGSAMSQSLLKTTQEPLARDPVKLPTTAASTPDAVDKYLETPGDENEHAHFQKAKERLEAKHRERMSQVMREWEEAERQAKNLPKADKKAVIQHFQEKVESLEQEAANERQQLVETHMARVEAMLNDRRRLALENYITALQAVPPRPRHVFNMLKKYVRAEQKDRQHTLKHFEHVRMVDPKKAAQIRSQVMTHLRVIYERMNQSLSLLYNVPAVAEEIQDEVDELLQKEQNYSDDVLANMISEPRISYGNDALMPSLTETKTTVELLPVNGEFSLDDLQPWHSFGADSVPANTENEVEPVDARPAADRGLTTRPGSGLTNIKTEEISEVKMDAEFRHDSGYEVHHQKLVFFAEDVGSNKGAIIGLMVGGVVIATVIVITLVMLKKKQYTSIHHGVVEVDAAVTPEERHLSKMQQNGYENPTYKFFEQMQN
- experiment_notes: Inhibition of amyloid beta 42 fibril formation by thioflavin T assay
property_measured: IC50 (nM)
Report only the number, with the unit nM understood.

- smiles: "COc1cc(/C=C/c2cc(Br)cc(/C=C/c3ccc(O)c(OC)c3)n2)ccc1O"
  IC50, nM: 1100

Given "CN(C)c1cc(/C=C/c2cccc(/C=C/c3ccc(O)c(N(C)C)c3)n2)ccc1O" , respond with its IC50. 2300

###

- system_name: Amyloid-beta precursor protein (Homo sapiens, UniProt P05067)
- experiment_notes: Inhibition of amyloid beta 42 fibril formation by thioflavin T assay
property_measured: IC50 (nM)
Report only the number, with the unit nM understood.

Solved cases below.
- smiles: "CNc1cc(/C=C/c2cccc(/C=C/c3ccc(O)c(NC)c3)n2)ccc1O"
  value_measured: 500
- smiles: "COc1cc(/C=C/c2cccc(/C=C/c3ccc(N(C)C)c(OC)c3)n2)ccc1N(C)C"
  value_measured: 800
- smiles: "CN(C)c1cc(/C=C/c2cccc(/C=C/c3ccc(O)c(N(C)C)c3)c2)ccc1O"
  value_measured: 2700

Given "COc1cc(/C=C/c2cc(N(C)C)cc(/C=C/c3ccc(O)c(OC)c3)n2)ccc1O" , respond with its IC50. 1900

Given "CN(C)c1ccc2cc3ccc(N(C)C)cc3nc2c1" , respond with its IC50. 600
